Measured pest or weed control at 250 g/ha values are reported for all entries that follow.
Test system: BARNYARDGRASS
assayNotes: Test C rice paddy
Format: in vivo, Echinochloa crusgalli
conditions: Echinochloa crus-galli, 504 h; 0250 G/HA, 21 days; read-out: plant response
Write it as a number; the unit % goes unstated.

The following compounds have reported results that may help.
[
  {
    "compound": "C=C(c1ccc(F)cc1)C(O)(Cn1ncnc1I)c1ccc(F)cc1F (centres unmarked) [Example 1381]",
    "pest or weed control at 250 g/ha [%]": 60
  },
  {
    "compound": "C=C(c1ccc(Cl)cc1Cl)C(O)(Cn1cncn1)c1ccccc1F (centres unmarked) [Example 107]",
    "pest or weed control at 250 g/ha [%]": 40
  },
  {
    "compound": "C=C(c1ccc(Cl)cc1)C(O)(Cn1cncn1)c1ccccc1F (centres unmarked) [Example 669]",
    "pest or weed control at 250 g/ha [%]": 98
  },
  {
    "compound": "C=C(c1ccccc1Cl)C(O)(Cn1cncn1)c1ccc(F)cc1F (centres unmarked) [Example 35]",
    "pest or weed control at 250 g/ha [%]": 80
  }
]

query: Can you share its pest or weed control at 250 g/ha? I mean this compound: C=C(c1ccccc1Cl)C(O)(Cn1cncn1)c1ccc(Cl)cc1Cl (centres unmarked) [Example 33]
result: 80

* * *

Tested on: WATER PLAINTAIN
assayNotes: Test C rice paddy
Assay type: in vivo, Alisma trivale
conditions: 504 h; 0500 G/HA, 21 days; read-out: plant response
Measured pest or weed control at 500 g/ha values are reported for all entries that follow.
Answers without a unit are incomplete; give the number and then its unit.

The following compounds have reported results that may help.
[
  {
    "compound": "C=C(c1ccc(F)cc1)C(O)(Cn1ncnc1I)c1ccc(F)cc1F (stereo not drawn) [Example 1381]",
    "pest or weed control at 500 g/ha": "0%"
  },
  {
    "compound": "C=C(c1ccccc1Cl)C(O)(Cn1cncn1)c1ccc(Cl)cc1Cl (stereo not drawn) [Example 33]",
    "pest or weed control at 500 g/ha": "0%"
  }
]

Okay, next one:
query: Can you share its pest or weed control at 500 g/ha? I mean this compound: C=C(c1ccc(Cl)cc1Cl)C(O)(Cn1cncn1)c1ccccc1F (stereo not drawn) [Example 107]
result: 60%

* * *

System: RICE JAP EFF
assayNotes: Test C rice paddy
Type: in vivo, Japonica rice
conditions: Oryza sativa, 504 h; 0500 G/HA, 21 days; read-out: plant response
assayEndpoint: pest or weed control at 500 g/ha (%)
Write it as a number; the unit % goes unstated.

[
  {
    "compound": "C=C(c1ccc(Cl)cc1Cl)C(O)(Cn1cncn1)c1ccccc1F (centres unmarked)",
    "displayUnit": "%",
    "pest or weed control at 500 g/ha": 40
  },
  {
    "compound": "C=C(c1ccccc1Cl)C(O)(Cn1cncn1)c1ccc(Cl)cc1Cl (centres unmarked)",
    "displayUnit": "%",
    "pest or weed control at 500 g/ha": 30
  },
  {
    "compound": "C=C(c1ccccc1)C(O)(Cn1cncn1)c1ccc(Cl)cc1Cl (centres unmarked)",
    "displayUnit": "%",
    "pest or weed control at 500 g/ha": 60
  },
  {
    "compound": "C=C(c1cccc(F)c1)C(O)(Cn1cncn1)c1ccc(F)cc1F (centres unmarked)",
    "displayUnit": "%",
    "pest or weed control at 500 g/ha": 50
  },
  {
    "compound": "C=C(c1ccc(F)cc1)C(O)(Cn1ncnc1I)c1ccc(F)cc1F (centres unmarked)",
    "displayUnit": "%",
    "pest or weed control at 500 g/ha": 40
  },
  {
    "compound": "C=C(c1ccc(F)cc1)C(O)(Cn1ncnc1S)c1ccc(F)cc1F (centres unmarked)",
    "displayUnit": "%",
    "pest or weed control at 500 g/ha": 0
  },
  {
    "compound": "C=C(c1ccc(Cl)cc1)C(O)(Cn1cncn1)c1ccccc1F (centres unmarked)",
    "displayUnit": "%",
    "pest or weed control at 500 g/ha": 0
  }
]

Okay, next one:
query: Can you share its pest or weed control at 500 g/ha? I mean this compound: C=C(c1ccccc1Cl)C(O)(Cn1cncn1)c1ccc(F)cc1F (centres unmarked)
result: 0

* * *

Measured pest or weed control at 20 ppm values are reported for all entries that follow.
Test system: Cercosporidium personatum
assayNotes: Example B Peanut Late Leafspot
Assay type: in vivo
conditions: Nothopassalora personata; 20 PPM; read-out: disease control rating, Ex. B
Write it as a number; the unit % goes unstated.

The following compounds have reported results that may help.
[
  {
    "compound": "C=C(c1ccc(F)cc1)C(O)(Cn1cncn1)c1cccc(C(F)(F)F)c1 (centres unmarked)",
    "testedSystem": "Cercosporidium personatum",
    "assayEndpoint": "pest or weed control at 20 ppm",
    "readoutValue": 79
  },
  {
    "compound": "C=C(c1ccc(F)cc1)C(Cn1cncn1)(OC(C)=O)c1ccc(F)cc1 (centres unmarked)",
    "testedSystem": "Cercosporidium personatum",
    "assayEndpoint": "pest or weed control at 20 ppm",
    "readoutValue": 26
  }
]

query: Can you share its pest or weed control at 20 ppm? I mean this compound: OC(Cn1cncn1)(C(=Cc1ccccc1)c1ccccc1)c1ccc(F)cc1 (centres unmarked)
result: 26

query: Can you share its pest or weed control at 20 ppm? I mean this compound: C=C(c1ccc(Cl)cc1)C(O)(Cn1cncn1)c1cccc(C(F)(F)F)c1 (centres unmarked)
result: 66

query: Can you share its pest or weed control at 20 ppm? I mean this compound: C=C(c1ccc(S(C)(=O)=O)cc1)C(O)(Cn1cncn1)c1ccc(F)cc1 (centres unmarked)
result: 26

* * *

System: PARK WHEAT
assayNotes: Test E
Assay type: in vivo, Triticum aestivum cv. Park
conditions: POSTEMERGENCE 0064 GM/HA
assayEndpoint: plant response (%)
Write it as a number; the unit % goes unstated.

[
  {
    "compound": "C=C(c1ccccc1)C(O)(Cn1cncn1)c1ccc(F)cc1F (stereo not shown)",
    "readoutValue": 30
  },
  {
    "compound": "C=C(c1ccccc1)C(O)(Cn1cncn1)c1ccc(Cl)cc1 (stereo not shown)",
    "readoutValue": 0
  },
  {
    "compound": "C=C(c1ccc(F)cc1)C(O)(Cn1cncn1)c1ccccc1F (stereo not shown)",
    "readoutValue": 0
  }
]

Okay, next one:
query: Can you share its plant response? I mean this compound: C=C(c1ccc(F)cc1)C(O)(Cn1cncn1)c1ccc(F)cc1F (stereo not shown)
result: 0

* * *

Test system: Rhizoctonia solani
assayNotes: Example F rice sheath blight
Format: in vivo
conditions: Rhizoctonia solani, 144 h, 100 PPM; read-out: disease control rating, Ex. F
Experimental: The test compounds were dissolved in acetone in an amount equal to 6% of the final volume and then suspended at a concentration of 100 or 20 ppm in purified water containing 250 ppm of the surfactant TREM 014 (polyhydric alcohol esters). This suspension was sprayed to the point of run-off on rice seedlings.
# label = met if pest or weed control at 100 ppm >= 50% else not met

As a guide, the following entries are already answered.
[
  {
    "compound": "C=C(c1cccc(Cl)c1)C(O)(Cn1cncn1)c1ccc(Cl)cc1 (stereo not drawn) [Example 41]",
    "class": "met"
  },
  {
    "compound": "C=C(c1ccc(F)cc1)C(Cn1cncn1)(OC(C)=O)c1ccc(F)cc1 (stereo not drawn) [Example 361]",
    "class": "not met"
  },
  {
    "compound": "C=C(c1ccc(S(C)(=O)=O)cc1)C(O)(Cn1cncn1)c1ccc(F)cc1 (stereo not drawn) [Example 177]",
    "class": "not met"
  },
  {
    "compound": "C=C(c1cccc(Cl)c1)C(O)(Cn1cncn1)c1ccc(F)cc1 (stereo not drawn) [Example 39]",
    "class": "met"
  },
  {
    "compound": "C=C(CN(C)C)C(O)(Cn1cncn1)c1ccc(-c2ccccc2)cc1 (stereo not drawn) [Example 456]",
    "class": "not met"
  },
  {
    "compound": "C=C(CN1CC(C)OC(C)C1)C(O)(Cn1cncn1)c1ccc(F)cc1 (stereo not drawn) [Example 477]",
    "class": "not met"
  }
]

query: Could you verify whether the entry C=C(c1ccc(F)cc1)C(O)(Cn1cncn1)c1ccc(Cl)cc1 (stereo not drawn) [Example 3] shows pest or weed control at 100 ppm of no less than 50%?
result: met

query: Could you verify whether the entry C=C(c1ccc(Cl)cc1)C(O)(Cn1cncn1)c1ccc(Cl)cc1Cl (stereo not drawn) [Example 26] shows pest or weed control at 100 ppm of no less than 50%?
result: met

query: Could you verify whether the entry C=C(CO)C(O)(Cn1cncn1)c1ccc(Br)cc1 (stereo not drawn) [Example 451] shows pest or weed control at 100 ppm of no less than 50%?
result: not met
